Data provenance: patent US20260242478A1

Target: T1, PSMA Fab (SEQ ID NOs: 19, 20)
T1 construct: Biotinylated and captured on neutravidin coated plates in the phage ELISA; also called Anti-PSMA Fab; 006 PSMA Fab
Experiment: phage ELISA; biotinylated PSMA Fab on neutravidin plate, anti-M13 HRP; no PSMA antigen
Where no end group is shown, it is not given here.
Recorded phage binding ELISA signal, one value per entry.

BINDER	phage binding ELISA signal
EPKWCTPPWMCENF [Phage-2567]	1.11
AIHWCTPPWMCEPQ [Phage-2569]	1.1
QYNWCVPAWMCEIS [Phage-2572]	1.1
SEIWCIPAWMCQST [Phage-2564]	1.11
WDKWCTPPWMCQVH [Phage-2559]	1.12
NWKWCIPEWMCAAE (cysteine pairing not given here; also: fused to phage pIII, linker and fusion site not given here) [Phage-2563]	1.11
VEKWCIPEWMCWTV [Phage-2565]	1.11
VDPWCKPAWMCLGM [Phage-2566]	1.11
GVMWCIPQWMCVTA [Phage-2560]	1.12
IAKWCIPSWMCAGI (cysteine pairing not given here; also: fused to phage pIII, linker and fusion site not given here) [Phage-2571]	1.1
EGPWCIPEWMCQNS [Phage-2570]	1.1
YAPWCIPLWMCLDR [Phage-2561]	1.11
WENWCTPTWMCWPN [Phage-2558]	1.12
IAKLCTPAWMCERH [Phage-2562]	1.11
YDVLCKPDWMCNWN [Phage-2568]	1.11
